experimental target: T1, human IL-1β (human, UniProt P01584 117-269)
T1 construct: it has 153 residues and begins APVRS; also called hIL-1β; recombinant purified human IL-1β
protocol details: SPR (Biacore 3000), antibody captured, human IL-1β as analyte, 25 C
observation type: koff (s⁻¹)
Give just the numeric value; s⁻¹ need not be written.

Note koff for the binder shown: humanized anti-human IL-1β antibody 1B12.2 (antibody, V domains shown, Cloned into IgG expression vectors and made as full-length humanized antibody; also called h1B12VH.1a/h1B12VL.1b; combination 2) VH: EVQLQESGPGLVKPSETLSLTCTVSGFSLSDYGVSWIRQPPGKGLEWLGLIWGGGDTYYNSPLKSRLTISKDNSKSQVSLKLSSVTAADTAVYYCAKQRTLWGYDLYGMDYWGQGTLVTVSS VL: ETTVTQSPSSLSASVGDRVTITCITSTDIDVDMNWYQQKPGKPPKLLISQGNTLRPGVPSRFSSSGSGTDFTFTISSLQPEDFATYYCLQSDNLPLTFGQGTKLEIK 0.0009
